Attribute: melting point

Cc1ccc(-n2cc(CN3C(=O)C(F)(F)c4cc(Br)ccc43)nn2)cc1Nc1nccc(-c2cccnc2)n1 [3d]	218 to 219 °C
Cc1ccc(-n2cc(CN3C(=O)C(=O)c4ccccc43)nn2)cc1Nc1nccc(-c2cccnc2)n1 [compound 2a]	237 to 239 °C

IN: # lookup: melting point of Cc1ccc(-n2cc(CN3C(=O)C(=O)c4cc(Cl)ccc43)nn2)cc1Nc1nccc(-c2cccnc2)n1 [2c]
OUT: 257 to 260 °C

IN: Requested read-out: melting point. Entry: Cc1ccc(-n2cc(CN3C(=O)C(=O)c4cc(Br)ccc43)nn2)cc1Nc1nccc(-c2cccnc2)n1 [2d]
OUT: 267 to 270 °C

IN: Please look up its melting point: Cc1ccc(-n2cc(CN3C(=O)C(F)(F)c4cc(Cl)ccc43)nn2)cc1Nc1nccc(-c2cccnc2)n1 [3c]
OUT: 223 to 224 °C

====

Tested on: WSS-1 cells
method: Resazurin cytotoxicity assay in WSS-1 cells
Type: cell-based
experimental conditions: WSS-1 healthy human cells, 48 h
Listed molecules paired with reported IC50
Kindly report the value followed by its unit.

Cc1ccc(-n2cc(CN3C(=O)C(F)(F)c4cc(Cl)ccc43)nn2)cc1Nc1nccc(-c2cccnc2)n1	13.5 µM

IN: Returns the measured IC50 for the input molecule. Input: Cc1ccc(-n2cc(CN3C(=O)C(F)(F)c4ccccc43)nn2)cc1Nc1nccc(-c2cccnc2)n1
OUT: 11.6 µM

IN: Any idea what IC50 was measured for Cc1ccc(-n2cc(CN3C(=O)C(F)(F)c4cc(Br)ccc43)nn2)cc1Nc1nccc(-c2cccnc2)n1 ?
OUT: 18.6 µM

IN: Reported IC50, molecule Cc1ccc2c(c1)C(F)(F)C(=O)N2Cc1cn(-c2ccc(C)c(Nc3nccc(-c4cccnc4)n3)c2)nn1 : ____
OUT: 69.3 µM
